pIC50: −log10 of the molar value.
Target or system ACE (Homo sapiens, UniProt P12821): recorded pIC50 listed per item.
property: pIC50

[[record]]
compound = "O=C(O)CN1C(=O)N(C(CS)Cc2ccccc2)C(=O)C12CCCCC2 (stereo not drawn)"
recorded_value = 6.70

[[record]]
compound = "O=C(O)CN1CC(=O)N(C(CS)Cc2ccccc2)C1=O (stereo not drawn)"
recorded_value = 5.27

[[record]]
compound = "CC1(C)C(=O)N(C(CS)Cc2ccccc2)C(=O)N1CC(=O)O (stereo not drawn)"
recorded_value = 5.62

[[record]]
compound = "CC(C)C1C(=O)N(C(CS)Cc2ccccc2)C(=O)N1CC(=O)O (stereo not drawn)"
recorded_value = 5.47

[[record]]
compound = "O=C(O)CN1C(=O)N(C(CS)Cc2ccccc2)C(=O)C1c1ccccc1 (stereo not drawn)"
recorded_value = 6.35

[[record]]
compound = "CC(O)C1C(=O)N(C(CS)Cc2ccccc2)C(=O)N1CC(=O)O (stereo not drawn)"
recorded_value = 5.96


###

- experimental_system: NEP (Rattus norvegicus)
- Sequence (P07861 1-750): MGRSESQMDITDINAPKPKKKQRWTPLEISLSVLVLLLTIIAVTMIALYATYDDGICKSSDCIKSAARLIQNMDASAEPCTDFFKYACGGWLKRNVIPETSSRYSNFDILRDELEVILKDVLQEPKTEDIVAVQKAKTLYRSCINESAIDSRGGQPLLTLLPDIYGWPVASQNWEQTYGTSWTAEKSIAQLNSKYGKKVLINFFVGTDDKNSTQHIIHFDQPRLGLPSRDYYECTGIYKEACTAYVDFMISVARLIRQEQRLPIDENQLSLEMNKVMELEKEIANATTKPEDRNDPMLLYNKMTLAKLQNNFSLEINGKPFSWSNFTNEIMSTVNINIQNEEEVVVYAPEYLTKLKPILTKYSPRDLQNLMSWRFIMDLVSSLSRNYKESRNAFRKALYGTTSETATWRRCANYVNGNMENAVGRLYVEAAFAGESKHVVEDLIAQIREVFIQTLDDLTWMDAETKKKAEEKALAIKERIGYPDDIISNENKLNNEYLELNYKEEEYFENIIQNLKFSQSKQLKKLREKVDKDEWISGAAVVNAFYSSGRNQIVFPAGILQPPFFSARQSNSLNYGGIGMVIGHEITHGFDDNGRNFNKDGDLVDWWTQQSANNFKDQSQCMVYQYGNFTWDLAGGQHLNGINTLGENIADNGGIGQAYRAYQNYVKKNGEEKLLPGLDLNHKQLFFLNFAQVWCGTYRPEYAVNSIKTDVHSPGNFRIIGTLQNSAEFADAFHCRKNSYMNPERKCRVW
// reported IC50 per item
property: IC50 (nM)

[[record]]
compound = "O=C(O)CN1C(=O)N(C(CS)Cc2ccccc2)C(=O)C1C(c1ccccc1)c1ccccc1 (centres unmarked) [Example 53]"
property = "IC50"
recorded_value = 230

[[record]]
compound = "O=C(O)CN1C(=O)N(C(CS)Cc2ccccc2)C(=O)C1C1CCCC1 (centres unmarked) [Example 51]"
property = "IC50"
recorded_value = 560

[[record]]
compound = "O=C1CN(C2CCCC2)C(=O)N1C(CS)Cc1ccccc1 (centres unmarked) [Example 1]"
property = "IC50"
recorded_value = 450

[[record]]
compound = "O=C1CN(C2CCCCC2)C(=O)N1C(CS)Cc1ccccc1 (centres unmarked) [Example 3]"
property = "IC50"
recorded_value = 250

[[record]]
compound = "O=C1CN(N2CCCCC2)C(=O)N1C(CS)Cc1ccccc1 (centres unmarked) [Example 45]"
property = "IC50"
recorded_value = 59

[[record]]
compound = "O=C1CN(N2CCOCC2)C(=O)N1C(CS)Cc1ccccc1 (centres unmarked) [Example 46]"
property = "IC50"
recorded_value = 110

[[record]]
compound = "C[C@@H](C(=O)O)N1CC(=O)N(C(CS)Cc2ccccc2)C1=O (some centres unmarked) [Example 26]"
property = "IC50"
recorded_value = 170

[[record]]
compound = "CC(C)C[C@@H](C(=O)O)N1CC(=O)N(C(CS)Cc2ccccc2)C1=O (some centres unmarked) [Example 28]"
property = "IC50"
recorded_value = 220

[[record]]
compound = "O=C(O)CC1C(=O)N(C(CS)Cc2ccccc2)C(=O)N1C1CCCC1 (centres unmarked) [Example 18]"
property = "IC50"
recorded_value = 250

[[record]]
compound = "O=C(O)CCC1C(=O)N(C(CS)Cc2ccccc2)C(=O)N1C1CCCC1 (centres unmarked) [Example 19]"
property = "IC50"
recorded_value = 160

[[record]]
compound = "O=C(O)CN1C(=O)N(C(CS)Cc2ccccc2)C(=O)C1c1ccccc1 (centres unmarked) [Example 52]"
property = "IC50"
recorded_value = 61


Recorded values, source patent EP0640594A1.
